# target: Nuclear factor erythroid 2-related factor 2 (Homo sapiens)
# measurementDescription: Activation of Nrf2 in human HepG2-ARE-C8 cells assessed as upregulation of ARE level at 20 uM after 12 hrs by luciferase reporter gene assay relative to control
# Assay type: cell-based
propertyMeasured: fold change (FC)

// known answers, use as guide
1) Oc1ccc(-c2nc(-c3ccc4nc[nH]c4c3)no2)cc1 6.23
2) COc1ccc(-c2nc(-c3ccc4nc[nH]c4c3)no2)c(OC)c1 8.57
3) Cn1cnc2ccc(-c3noc(-c4ccccc4)n3)cc21 17.4
4) Cc1nc2cc(-c3noc(-c4ccccc4Br)n3)ccc2o1 3.31
5) Cn1cnc2ccc(-c3noc(-c4ccc5cc[nH]c5c4)n3)cc21 7.61
6) Clc1ccc(-c2nc(-c3ccc4nc[nH]c4c3)no2)cc1 15.5
7) N#Cc1cccc(-c2nc(-c3ccc4nc[nH]c4c3)no2)c1 0.87
8) c1cc(-c2nc(-c3ccc4nc[nH]c4c3)no2)ccn1 4.36

P: Oc1ccccc1-c1nc(-c2ccc3nc[nH]c3c2)no1
Q: Cc1cccc(-c2nc(-c3ccc4nc[nH]c4c3)no2)c1
Query :: // compare: P vs Q , metric fold change (FC), want the smaller When you have decided, please share the label of that item.
Result :: P
(P: 2.67, Q: 14.2)

P: COC(=O)/C=C/C(=O)OC
Q: FC(F)(F)c1ccc(-c2nc(-c3ccc4nc[nH]c4c3)no2)cc1
Query :: Hi there! Just curious which has the higher fold change (FC) between P and Q . When you have decided, please share the label of that item.
Result :: Q

P: c1cc2ccc(-c3nc(-c4ccc5nc[nH]c5c4)no3)cc2[nH]1
Q: COc1ccccc1-c1nc(-c2ccc3nc[nH]c3c2)no1
R: c1ccc(-c2nc(-c3ccc4nc[nH]c4c3)no2)cc1
S: Cn1nnc2ccc(-c3noc(-c4ccc(F)cc4)n3)cc21
Query :: Sort ascending by fold change (FC). Lab note: final answer is the ordered label list.
Result :: S, Q, P, R
(S: 3.88, Q: 5.96, P: 10.2, R: 21.4)

###

# measurementDescription: Permeability of the compound at pH 7.4 by PAMPA
# Assay type: physicochemical
# conditionSet: read-out: permeability
propertyMeasured: Papp (×10⁻⁶ cm/s)

// known answers, use as guide
compound	Papp (×10⁻⁶ cm/s)
Clc1ccc(-c2nc(-c3ccc4nc[nH]c4c3)no2)cc1	10.3
FC(F)(F)c1ccccc1-c1nc(-c2ccc3nc[nH]c3c2)no1	4.78
CC(C)NCC(O)COc1cccc2ccccc12 (stereo not drawn)	117
c1ccc2cc(-c3nc(-c4ccc5nc[nH]c5c4)no3)ccc2c1	8.64

A: CC(C(=O)O)c1cccc(C(=O)c2ccccc2)c1 (stereo not drawn)
B: Fc1ccc(-c2nc(-c3ccc4nc[nH]c4c3)no2)cc1
Query :: // compare: A vs B , metric Papp, want the smaller When you have decided, please share the label of that item.
Result :: A
(A: 1.93 ×10⁻⁶ cm/s, B: 19.6 ×10⁻⁶ cm/s)

a: Brc1ccc(-c2nc(-c3ccc4nc[nH]c4c3)no2)cc1
b: c1ccc(-c2nc(-c3ccc4nc[nH]c4c3)no2)cc1
Query :: // compare: a vs b , metric Papp, want the smaller When you have decided, please share the label of that item.
Result :: b

###

# target: Nuclear factor erythroid 2-related factor 2 (Homo sapiens) (UniProt Q16236)
# Sequence (Q16236 whole entry): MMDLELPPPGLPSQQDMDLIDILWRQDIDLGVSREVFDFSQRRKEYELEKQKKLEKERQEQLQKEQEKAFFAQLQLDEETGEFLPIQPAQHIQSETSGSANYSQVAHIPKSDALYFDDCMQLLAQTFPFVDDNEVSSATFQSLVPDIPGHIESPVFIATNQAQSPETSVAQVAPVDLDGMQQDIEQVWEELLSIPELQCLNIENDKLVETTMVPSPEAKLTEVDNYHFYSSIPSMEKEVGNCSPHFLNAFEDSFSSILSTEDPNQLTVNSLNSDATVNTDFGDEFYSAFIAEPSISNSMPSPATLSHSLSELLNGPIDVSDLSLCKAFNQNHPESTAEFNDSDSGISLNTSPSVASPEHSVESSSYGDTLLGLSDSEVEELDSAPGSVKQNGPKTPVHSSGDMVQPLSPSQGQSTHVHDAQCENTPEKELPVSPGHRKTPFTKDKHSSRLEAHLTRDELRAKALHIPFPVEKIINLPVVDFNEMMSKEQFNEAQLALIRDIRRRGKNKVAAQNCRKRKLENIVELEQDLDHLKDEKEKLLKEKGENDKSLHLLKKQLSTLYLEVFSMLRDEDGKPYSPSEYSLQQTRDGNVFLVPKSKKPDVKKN
# measurementDescription: Activation of Nrf2 in human HepG2-ARE-C8 cells assessed as upregulation of ARE level at 80 uM after 12 hrs by luciferase reporter gene assay relative to control
# Assay type: cell-based
propertyMeasured: fold change (FC)

1) CCc1ccc(-c2nc(-c3ccc4nc[nH]c4c3)no2)cc1 4.82
2) N#Cc1cccc(-c2nc(-c3ccc4nc[nH]c4c3)no2)c1 3.16
3) CCCc1ccc(-c2nc(-c3ccc4nc[nH]c4c3)no2)cc1 7.79
4) Cn1cnc2ccc(-c3noc(-c4ccc5cc[nH]c5c4)n3)cc21 12.1
5) COc1ccccc1-c1nc(-c2ccc3nc[nH]c3c2)no1 8.46
6) O=[N+]([O-])c1ccccc1-c1nc(-c2ccc3nc[nH]c3c2)no1 42.6

I: Cn1nnc2ccc(-c3noc(-c4ccc(F)cc4)n3)cc21
II: Cn1cnc2ccc(-c3noc(-c4ccc5ccccc5c4)n3)cc21
III: O=[N+]([O-])c1ccc(-c2nc(-c3ccc4nc[nH]c4c3)no2)cc1
IV: N#Cc1ccc(-c2nc(-c3ccc4nc[nH]c4c3)no2)cc1
Query :: Sort ascending by fold change (FC). Lab note: final answer is the ordered label list.
Result :: II, I, IV, III
(II: 1.37, I: 5.48, IV: 10, III: 30.6)

I: c1cc(-c2nc(-c3ccc4nc[nH]c4c3)no2)ccn1
II: Oc1ccc(-c2nc(-c3ccc4nc[nH]c4c3)no2)cc1
Query :: // compare: I vs II , metric fold change (FC), want the smaller When you have decided, please share the label of that item.
Result :: I

P: CC(C)(C)C1=CC(=O)C=CC1=O
Q: c1ccc2cc(-c3nc(-c4ccc5nc[nH]c5c4)no3)ccc2c1
Query :: // compare: P vs Q , metric fold change (FC), want the smaller When you have decided, please share the label of that item.
Result :: P
(P: 5.27, Q: 13.4)

###

# measurementDescription: Intrinsic aqueous solubility of the compound by potentiometric titration method
# Format: physicochemical
# conditionSet: read-out: Intrinsic_solubility
propertyMeasured: solubility (µM)

A: c1ccc(-c2nc(-c3ccc4nc[nH]c4c3)no2)cc1
B: Fc1ccc(-c2nc(-c3ccc4nc[nH]c4c3)no2)cc1
Query :: Hi there! Just curious which has the higher solubility between A and B . When you have decided, please share the label of that item.
Result :: B

A: FC(F)(F)c1ccccc1-c1nc(-c2ccc3nc[nH]c3c2)no1
B: Brc1ccc(-c2nc(-c3ccc4nc[nH]c4c3)no2)cc1
Query :: // compare: A vs B , metric solubility, want the smaller When you have decided, please share the label of that item.
Result :: A

A: c1ccc2cc(-c3nc(-c4ccc5nc[nH]c5c4)no3)ccc2c1
B: Clc1ccc(-c2nc(-c3ccc4nc[nH]c4c3)no2)cc1
Query :: Hi there! Just curious which has the higher solubility between A and B . When you have decided, please share the label of that item.
Result :: B
(B: 49.5 µM, A: 2.5 µM)

###

# target: Nuclear factor erythroid 2-related factor 2 (Homo sapiens)
# measurementDescription: Activation of Nrf2 in human HepG2-ARE-C8 cells assessed as upregulation of ARE level at 20 uM after 12 hrs by luciferase reporter gene assay relative to control
# Type: cell-based
propertyMeasured: fold change (FC)

// known answers, use as guide
1) Cn1cnc2ccc(-c3noc(-c4ccc5ccccc5c4)n3)cc21 1.39
2) FC(F)(F)c1cccc(-c2nc(-c3ccc4nc[nH]c4c3)no2)c1 10.5
3) O=[N+]([O-])c1ccc(-c2nc(-c3ccc4nc[nH]c4c3)no2)cc1 15.6

a: Brc1ccc(-c2nc(-c3ccc4nc[nH]c4c3)no2)cc1
b: N#Cc1ccc(-c2nc(-c3ccc4nc[nH]c4c3)no2)cc1
Query :: // compare: a vs b , metric fold change (FC), want the smaller When you have decided, please share the label of that item.
Result :: b
(b: 8.12, a: 13.4)

P: COc1ccc(-c2nc(-c3ccc4nc[nH]c4c3)no2)cc1
Q: CCCCc1ccc(-c2nc(-c3ccc4nc[nH]c4c3)no2)cc1
Query :: Hi there! Just curious which has the higher fold change (FC) between P and Q . When you have decided, please share the label of that item.
Result :: Q

a: COc1cccc(-c2nc(-c3ccc4nc[nH]c4c3)no2)c1
b: N#Cc1ccccc1-c1nc(-c2ccc3nc[nH]c3c2)no1
Query :: // compare: a vs b , metric fold change (FC), want the smaller When you have decided, please share the label of that item.
Result :: b

###

# target: Nuclear factor erythroid 2-related factor 2 (Homo sapiens) (UniProt Q16236)
# measurementDescription: Activation of Nrf2 in human HepG2-ARE-C8 cells assessed as upregulation of ARE level at 40 uM after 12 hrs by luciferase reporter gene assay relative to control
# Type: cell-based
propertyMeasured: fold change (FC)

// known answers, use as guide
1) c1cc2ccc(-c3nc(-c4ccc5nc[nH]c5c4)no3)cc2[nH]1 11
2) c1ccc2cc(-c3nc(-c4ccc5nc[nH]c5c4)no3)ccc2c1 7.57
3) Brc1ccc(-c2nc(-c3ccc4nc[nH]c4c3)no2)cc1 3.44
4) c1ccc(-c2nc(-c3ccc4nc[nH]c4c3)no2)nc1 7.51
5) Cn1nnc2cc(-c3noc(-c4ccccc4)n3)ccc21 7.34

a: Oc1cccc(-c2nc(-c3ccc4nc[nH]c4c3)no2)c1
b: N#Cc1ccc(-c2nc(-c3ccc4nc[nH]c4c3)no2)cc1
Query :: Hi there! Just curious which has the higher fold change (FC) between a and b . When you have decided, please share the label of that item.
Result :: b

P: N#Cc1ccccc1-c1nc(-c2ccc3nc[nH]c3c2)no1
Q: FC(F)(F)c1cccc(-c2nc(-c3ccc4nc[nH]c4c3)no2)c1
R: N#Cc1cccc(-c2nc(-c3ccc4nc[nH]c4c3)no2)c1
S: O=[N+]([O-])c1cccc(-c2nc(-c3ccc4nc[nH]c4c3)no2)c1
Query :: Put the items in sequence by fold change (FC), from largest down. Lab note: final answer is the ordered label list.
Result :: S, Q, P, R
